Molecular target: Serine/threonine-protein kinase pim-1 (Homo sapiens, UniProt P11309)
Sequence (P11309 whole entry, looked up): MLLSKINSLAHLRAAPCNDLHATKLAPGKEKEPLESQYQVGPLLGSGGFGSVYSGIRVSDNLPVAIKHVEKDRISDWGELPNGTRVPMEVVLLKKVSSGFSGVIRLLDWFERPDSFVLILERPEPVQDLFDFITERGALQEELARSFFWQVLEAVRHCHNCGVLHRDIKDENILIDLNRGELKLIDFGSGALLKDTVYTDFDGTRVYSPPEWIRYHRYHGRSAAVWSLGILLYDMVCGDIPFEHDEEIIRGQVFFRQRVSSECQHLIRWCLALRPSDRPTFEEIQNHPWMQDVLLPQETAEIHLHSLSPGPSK
Assay: Inhibition of human PIM1 assessed as residual activity using RSRHSSYPAGT as substrate at 10 uM after 30 mins
reported_endpoint: Activity (%)

smi	Activity (%)
Nc1cc2cn[nH]c2c2c1[nH]c1ccc(Cl)cc12	29
Nc1cc2cn[nH]c2c2c1[nH]c1ccccc12	54
COc1ccc2[nH]c3c([N+](=O)[O-])cc4[nH]ncc4c3c2c1	13

(A) COc1ccc2[nH]c3c([N+](=O)[O-])cc4cn[nH]c4c3c2c1
(B) Nc1cc2[nH]ncc2c2c1[nH]c1ccccc12
Pick one: A or B . Which has the bigger Activity number? Lab log: write the label of the selected item as the result.
A
